biological target: Mitogen-activated protein kinase kinase kinase 5 (Homo sapiens, UniProt Q99683); assay: Inhibition of human recombinant ASK1 using MBP as substrate preincubated for 1 hr followed by reagent addition incubated for 40 mins by ATP-Glo kinase assay
Sequence (Q99683 whole entry): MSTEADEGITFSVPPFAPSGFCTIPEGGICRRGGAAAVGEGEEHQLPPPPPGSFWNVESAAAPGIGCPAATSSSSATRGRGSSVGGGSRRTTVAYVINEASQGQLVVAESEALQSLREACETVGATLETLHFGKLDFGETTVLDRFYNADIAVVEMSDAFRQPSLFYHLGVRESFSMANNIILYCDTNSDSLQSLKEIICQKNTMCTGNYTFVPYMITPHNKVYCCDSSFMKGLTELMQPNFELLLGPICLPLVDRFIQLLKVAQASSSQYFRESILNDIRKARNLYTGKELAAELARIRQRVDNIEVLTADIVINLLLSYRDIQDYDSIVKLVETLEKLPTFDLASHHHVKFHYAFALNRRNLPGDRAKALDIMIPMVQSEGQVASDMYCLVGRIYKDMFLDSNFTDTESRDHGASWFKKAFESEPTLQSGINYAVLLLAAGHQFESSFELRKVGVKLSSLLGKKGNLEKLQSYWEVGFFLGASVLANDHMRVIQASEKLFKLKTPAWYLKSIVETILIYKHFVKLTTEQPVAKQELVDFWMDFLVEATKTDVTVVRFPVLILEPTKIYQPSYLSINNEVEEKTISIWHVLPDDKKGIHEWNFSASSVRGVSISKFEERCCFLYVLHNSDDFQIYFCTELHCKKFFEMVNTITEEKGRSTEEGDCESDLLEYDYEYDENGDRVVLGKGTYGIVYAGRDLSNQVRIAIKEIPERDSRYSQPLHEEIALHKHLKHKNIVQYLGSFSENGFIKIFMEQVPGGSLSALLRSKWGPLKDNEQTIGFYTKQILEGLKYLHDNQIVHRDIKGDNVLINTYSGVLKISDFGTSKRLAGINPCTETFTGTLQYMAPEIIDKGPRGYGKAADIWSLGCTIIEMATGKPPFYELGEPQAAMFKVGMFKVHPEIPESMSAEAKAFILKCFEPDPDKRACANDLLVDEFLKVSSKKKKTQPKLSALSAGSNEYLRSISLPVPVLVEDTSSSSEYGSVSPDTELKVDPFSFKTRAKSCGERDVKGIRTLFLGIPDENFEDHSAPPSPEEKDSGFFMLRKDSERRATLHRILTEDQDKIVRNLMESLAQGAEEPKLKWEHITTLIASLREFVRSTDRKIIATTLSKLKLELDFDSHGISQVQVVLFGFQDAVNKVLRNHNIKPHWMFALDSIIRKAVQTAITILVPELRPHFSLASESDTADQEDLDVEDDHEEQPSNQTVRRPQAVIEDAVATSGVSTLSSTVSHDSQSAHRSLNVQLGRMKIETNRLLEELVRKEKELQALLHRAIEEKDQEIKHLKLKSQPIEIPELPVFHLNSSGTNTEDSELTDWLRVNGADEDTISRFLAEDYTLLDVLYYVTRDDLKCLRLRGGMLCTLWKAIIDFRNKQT
readout name: IC50 (nM)

Here are 7 compounds together with their reported answers.
[[record]]
given_smiles = "CCCCn1cnnc1-c1cccc(NC(=O)c2cc3c(C(F)(F)F)nn(C)c3[nH]c2=O)n1"
unit_descriptor = "nM"
value_reported = 978

[[record]]
given_smiles = "O=C(Nc1cccc(-c2nncn2C2CC2)n1)c1cc(-c2cnc(Cl)nc2)cn(Cc2ccccc2F)c1=O"
unit_descriptor = "nM"
value_reported = 2370

[[record]]
given_smiles = "CC(C)n1cc(-c2cc(C(=O)Nc3cccc(-c4nncn4C4CC4)n3)c(=O)n(Cc3ccccc3F)c2)cn1"
unit_descriptor = "nM"
value_reported = 9.13

[[record]]
given_smiles = "Cn1nc(C(F)(F)F)c2cc(C(=O)Nc3cccc(-c4nncn4C4CCCC4)n3)c(=O)[nH]c21"
unit_descriptor = "nM"
value_reported = 2180

[[record]]
given_smiles = "O=C(Nc1cccc(-c2nncn2C2CC2)n1)c1cc(-c2cnn(C3CC3)c2)cn(Cc2ccccc2F)c1=O"
unit_descriptor = "nM"
value_reported = 1.73

[[record]]
given_smiles = "O=C(Nc1cccc(-c2nncn2C2CC2)n1)c1cc(-c2cnn(C(F)F)c2)cn(Cc2ccccc2F)c1=O"
unit_descriptor = "nM"
value_reported = 291

[[record]]
given_smiles = "Cn1nc(C(F)(F)F)c2cc(C(=O)Nc3cccc(-c4nncn4C4CC4)n3)c(OCc3ccccc3F)nc21"
unit_descriptor = "nM"
value_reported = 1290


(a) Cn1nc(C(F)(F)F)c2cc(C(=O)Nc3cccc(-c4nncn4C4CCCC4)n3)c(OCc3ccccc3F)nc21
(b) CCn1c(=O)c(C(=O)Nc2cccc(-c3nncn3C3CCCCC3)n2)cc2c(C(F)(F)F)nn(C)c21
(c) CC(C)n1cnnc1-c1cccc(NC(=O)c2cc3c(C(F)(F)F)nn(C)c3[nH]c2=O)n1
(d) Cn1nc(C(F)(F)F)c2cc(C(=O)Nc3cccc(-c4nncn4C4CC4)n3)c(=O)[nH]c21
(e) O=C(Nc1cccc(-c2nncn2C2CC2)n1)c1cc(-c2cnn(C3CCC3)c2)cn(Cc2ccccc2F)c1=O
## Task Provide the items ranked by increasing IC50. Please, when replying, give the labels in the order that was requested.
## Result e, d, a, b, c

---

experiment: Antiproliferative against rat NRK-49F cells measured after 48 hrs by CCK8 assay; assay type: toxicity, cell-based
readout name: IC50 at 48 h

[[record]]
given_smiles = "O=C(Nc1cccc(-c2nncn2C2CC2)n1)c1cc(-c2cnn(C3CCC3)c2)cn(Cc2ccccc2F)c1=O"
readout_name = "IC50 at 48 h"
value_reported = "> 80 µM"


Data point: CC(C)n1cnnc1-c1cccc(NC(=O)c2cc3c(C(F)(F)F)nn(C)c3[nH]c2=O)c1 ; IC50 at 48 h = > 80 µM

Documented IC50 at 48 h of O=C(Nc1cccc(-c2nncn2C2CC2)n1)c1cc(Br)cn(Cc2ccccc2F)c1=O : > 80 µM

Recorded result, CCn1c(=O)c(C(=O)Nc2cccc(-c3nncn3C3CCCCC3)n2)cc2c(C(F)(F)F)nn(C)c21 , IC50 at 48 h: > 80 µM

So for Cn1nc(C(F)(F)F)c2cc(C(=O)Nc3cccc(-c4nncn4C4CCCC4)n3)c(OCc3ccccc3F)nc21 , the logged IC50 at 48 h turned out to be 11.4 µM

# IC50 at 48 h of Cn1nc(C(F)(F)F)c2cc(C(=O)Nc3cccc(-c4nncn4C4CCCC4)n3)c(=O)[nH]c21 = > 80 µM

Input O=C(Nc1cccc(-c2nncn2C2CC2)n1)c1cc(-c2cnn(C(F)F)c2)cn(Cc2ccccc2F)c1=O . Output IC50 at 48 h: 58.5 µM

get_value(item= O=C(Nc1cccc(-c2nncn2C2CC2)n1)c1cc(-c2cccnc2)cn(Cc2ccccc2F)c1=O , readout=IC50 at 48 h) returns > 80 µM

The compound Cn1nc(C(F)(F)F)c2cc(C(=O)Nc3cccc(-c4nncn4C4CCCC4)c3)c(=O)[nH]c21 showed IC50 at 48 h equal to > 80 µM

// O=C(Nc1cccc(-c2nncn2C2CC2)n1)c1cc(-c2cnc(Cl)nc2)cn(Cc2ccccc2F)c1=O : IC50 at 48 h value = > 80 µM

For CCCCn1cnnc1-c1cccc(NC(=O)c2cc3c(C(F)(F)F)nn(C)c3[nH]c2=O)n1 the compound record lists IC50 at 48 h as > 80 µM

Field IC50 at 48 h (entry O=C(Nc1cccc(-c2nncn2C2CC2)n1)c1cc(-c2cnn(C3CC3)c2)cn(Cc2ccccc2F)c1=O ) reads 21.1 µM

Lab book: IC50 at 48 h of Cn1nc(C(F)(F)F)c2cc(C(=O)Nc3cccc(-c4nncn4C4CCCCC4)n3)c(=O)[nH]c21 noted as > 80 µM

The reported IC50 at 48 h of the compound O=C(Nc1cccc(-c2nncn2C2CC2)c1)c1cc(-n2cnc(C3CC3)c2)ccn1 was 34.4 µM

Reported IC50 at 48 h for O=C(Nc1cccc(-c2nncn2C2CC2)n1)c1cc(-c2ccc3scnc3c2)cn(Cc2ccccc2F)c1=O was 34.2 µM

compound CC(C)n1cnnc1-c1cccc(NC(=O)c2cc3c(C(F)(F)F)nn(C)c3[nH]c2=O)n1 , IC50 at 48 h observed: > 80 µM

Sample CC(C)n1cnnc1-c1cccc(NC(=O)c2cc3c(C(F)(F)F)nn(C)c3nc2OCc2ccccc2F)n1 ; IC50 at 48 h observed: > 80 µM
